In this section, each of the compounds is paired with its reported pIC50.
target: DGKα (Homo sapiens (Human)); assay: Human DGKα kinase activity inhibition assay (ADP-Glo); conditions: recombinant full-length human DGKα, 55 μM ATP, 7 μM 1,2-dioleoyl-sn-glycerol, read-out: IC50 values of examples in in vitro human DGKa kinase activity inhibition assays
pIC50: −log10 of the molar value.
Metric Name: pIC50

compound=Cn1c(=O)c(C#N)c(N2CCC(c3nc4ccc(C5CC5)cc4o3)CC2)c2ccccc21 target_system="DGKα (Homo sapiens (Human))" test_result=8.62
compound=Cc1nc2cc(C3CCN(c4c(C#N)c(=O)n(C)c5ccccc45)CC3)ccc2o1 target_system="DGKα (Homo sapiens (Human))" test_result=7.42
compound=COc1ccc(C2CCN(c3c(C(N)=O)c(=O)n(C)c4cc(C5COC5)ccc34)CC2)cc1 target_system="DGKα (Homo sapiens (Human))" test_result=7.70
compound=Cc1ccc2oc(C3CCN(c4c(C(N)=O)c(=O)n(C)c5ccc(OCC(C)(F)F)cc45)CC3)nc2c1 target_system="DGKα (Homo sapiens (Human))" test_result=5.57
compound=CCCOc1ccc(C2CCN(c3c(C#N)c(=O)n(C)c4ccccc34)CC2)cc1 target_system="DGKα (Homo sapiens (Human))" test_result=7.96
compound=Cc1cccc(-c2nnc(C3CCN(c4c(C(N)=O)c(=O)n(C)c5ccccc45)CC3)o2)c1 target_system="DGKα (Homo sapiens (Human))" test_result=6.95
compound="Cc1ccc2c(c1)c(N1CCCC(c3nc4ccccc4o3)CC1)c(C#N)c(=O)n2C (stereo not shown)" target_system="DGKα (Homo sapiens (Human))" test_result=8.15
compound=CC(C)c1ccc2oc(C3(C)CCN(c4c(C#N)c(=O)n(C)c5ccccc45)CC3)nc2c1 target_system="DGKα (Homo sapiens (Human))" test_result=8.28
compound=Cn1c(=O)c(C#N)c(N2CCC(c3nc4ccccc4o3)CC2)c2cc(F)ccc21 target_system="DGKα (Homo sapiens (Human))" test_result=9.10
compound=Cn1c(=O)c(C#N)c(N2CCC(C)(c3nnc(-c4cccc(Cl)c4)o3)CC2)c2ccccc21 target_system="DGKα (Homo sapiens (Human))" test_result=6.85
compound=Cc1ccc2oc(C3(C)CCN(c4c(C#N)c(=O)n(C)c5ccccc45)CC3)nc2c1 target_system="DGKα (Homo sapiens (Human))" test_result=8.42
compound=Cn1c(=O)c(C#N)c(N2CCC(c3nc4ccccc4s3)CC2)c2ccc(Br)cc21 target_system="DGKα (Homo sapiens (Human))" test_result=8.21
compound=COc1ccc2c(c1)c(N1CCC(C)(c3nc4ccc(C)cc4o3)CC1)c(C#N)c(=O)n2C target_system="DGKα (Homo sapiens (Human))" test_result=8.15
compound=Cc1c(C#N)cccc1C1CCN(c2c(C#N)c(=O)n(C)c3ccccc23)CC1 target_system="DGKα (Homo sapiens (Human))" test_result=7.14
compound=Cn1c(=O)c(C(N)=O)c(N2CCC(c3nc4ccccc4o3)CC2)c2ccc(N3CCCC3=O)cc21 target_system="DGKα (Homo sapiens (Human))" test_result=7.32
compound=Cc1ccc2oc(C3CCN(c4c(C#N)c(=O)n(C)c5ccc(C(N)=O)cc45)CC3)nc2c1 target_system="DGKα (Homo sapiens (Human))" test_result=8.28

---

biological target: UniProt P23743; experiment: Human DGKα kinase activity inhibition assay (ADP-Glo); assay type: biochemical; settings: recombinant full-length human DGKα, 55 μM ATP, 7 μM 1,2-dioleoyl-sn-glycerol, read-out: IC50 values of examples in in vitro human DGKa kinase activity inhibition assays
In this section, each of the compounds is paired with its reported IC50.
Metric Name: IC50 (nM)

compound="Cc1ccc2oc(C3CCN(c4c(C(N)=O)c(=O)n(C)c5ccc(OCC6CC6)cc45)CC3)nc2c1 [Example 505]" test_result=269
compound="Cn1c(=O)c(C#N)c(N2CCC(c3ccc(N4CCCC4=O)cc3)CC2)c2ccccc21 [Example 59]" test_result=23
compound="COc1ccc(C2CCN(c3c(C#N)c(=O)n(C)c4ccccc34)CC2)cc1OC [Example 324]" test_result=14
compound="COc1ccc(C2CCN(c3c(C#N)c(=O)n(C)c4cc(C5=CCOCC5)ccc34)CC2)cc1 [Example 100]" test_result=2.3
compound="CCn1c(=O)c(C#N)c(N2CCC(c3ccc(Cl)cc3)CC2)c2ccccc21 [Example 333]" test_result=172
compound="COCCc1cccc2oc(C3CCN(c4c(C#N)c(=O)n(C)c5ccccc45)CC3)nc12 [Example 265]" test_result=49
compound="Cn1c(=O)c(C#N)c(N2CCC(c3nc4ccccc4o3)CC2)c2ccc(C#N)cc21 [Example 275]" test_result=172
compound="COCc1ccc2oc(C3(C)CCN(c4c(C(N)=O)c(=O)n(C)c5ccccc45)CC3)nc2c1 [Example 490]" test_result=7.8
compound="COc1ccc2c(N3CCC(c4nc5cc(Cl)ccc5o4)CC3)c(C#N)c(=O)n(C)c2c1 [Example 259]" test_result=29
compound="Cc1cc2c(N3CCC(c4cnn(-c5ccccc5C)c4)CC3)c(C#N)c(=O)n(C)c2cc1Br [Example 579]" test_result=61
compound="COc1cc2c(cc1Br)c(N1CCC(c3nc(-c4ccccc4C)no3)CC1)c(C#N)c(=O)n2C [Example 530]" test_result=1.8
compound="Cn1c(=O)c(C#N)c(N2CCC(c3nc4ccccc4s3)CC2)c2ccc(N3CCCC3=O)cc21 [Example 36]" test_result=8.3
compound="Cn1c(=O)c(C(N)=O)c(N2CCC(C)(c3nc4ccccc4o3)CC2)c2ccccc21 [Example 105]" test_result=1.9
compound="Cn1c(=O)c(C#N)c(N2CCC(c3cccc(F)c3)CC2)c2ccccc21 [Example 62]" test_result=38
compound="COC1(c2cccc(Cl)c2)CCN(c2c(C#N)c(=O)n(C)c3ccccc23)CC1 [Example 336]" test_result=80
compound="COc1cc2c(cc1C)c(N1CCC(c3nc4cc(C)ccc4o3)CC1)c(C#N)c(=O)n2C [Example 419]" test_result=4.6

---

molecular target: DGKα (Homo sapiens (Human), UniProt P23743); experiment: Human DGKα kinase activity inhibition assay (ADP-Glo); conditions: recombinant full-length human DGKα, 55 μM ATP, 7 μM 1,2-dioleoyl-sn-glycerol, read-out: IC50 values of examples in in vitro human DGKa kinase activity inhibition assays
Sequence (P23743 other isoform, or with tags, fused parts or gaps): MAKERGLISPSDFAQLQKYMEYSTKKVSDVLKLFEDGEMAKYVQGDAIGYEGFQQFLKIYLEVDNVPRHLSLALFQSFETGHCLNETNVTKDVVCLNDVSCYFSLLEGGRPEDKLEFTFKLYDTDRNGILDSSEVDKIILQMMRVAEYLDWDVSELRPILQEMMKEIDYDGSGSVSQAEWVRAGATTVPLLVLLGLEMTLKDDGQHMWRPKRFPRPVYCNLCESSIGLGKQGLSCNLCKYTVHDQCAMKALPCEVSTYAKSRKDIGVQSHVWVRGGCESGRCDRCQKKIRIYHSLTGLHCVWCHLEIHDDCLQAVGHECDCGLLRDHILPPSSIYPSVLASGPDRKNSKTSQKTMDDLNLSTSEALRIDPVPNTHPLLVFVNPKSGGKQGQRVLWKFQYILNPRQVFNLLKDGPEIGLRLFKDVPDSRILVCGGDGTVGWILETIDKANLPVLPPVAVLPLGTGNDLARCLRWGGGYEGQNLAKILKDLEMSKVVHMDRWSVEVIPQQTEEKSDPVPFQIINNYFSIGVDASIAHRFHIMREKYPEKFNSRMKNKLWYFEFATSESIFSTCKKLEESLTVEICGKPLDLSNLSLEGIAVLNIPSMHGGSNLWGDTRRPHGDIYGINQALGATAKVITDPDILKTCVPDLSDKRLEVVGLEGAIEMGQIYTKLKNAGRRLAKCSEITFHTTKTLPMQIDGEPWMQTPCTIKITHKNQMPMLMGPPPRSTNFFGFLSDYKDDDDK
Metric Name: IC50 (nM)

mol_smiles=COCc1ccc2oc(C3(C)CCN(c4c(C#N)c(=O)n(C)c5ccccc45)CC3)nc2c1 test_result=8.3
mol_smiles=Cn1c(=O)c(C#N)c(N2CCC(c3ccc4c(c3)C3(CCC3)C(=O)N4)CC2)c2ccccc21 test_result=27
mol_smiles=CCCOc1cccc2c(N3CCC(C)(c4nc5cc(C)ccc5o4)CC3)c(C#N)c(=O)n(C)c12 test_result=119
mol_smiles=COc1ccc(C2CCN(c3c(C#N)c(=O)n(C)c4cc(C#N)ccc34)CC2)cc1 test_result=11
mol_smiles=Cc1ccccc1-c1nnc(C2CCN(c3c(C#N)c(=O)n(C)c4cc(O)ccc34)CC2)o1 test_result=82
mol_smiles=Cc1ccc2oc(C3(C)CCN(c4c(C(N)=O)c(=O)n(C)c5ccc(C)cc45)CC3)nc2c1 test_result=2.1
mol_smiles=Cn1c(=O)c(C#N)c(N2CCC(c3cccnc3)CC2)c2ccccc21 test_result=897
mol_smiles=Cc1ccc2oc(C3CCN(c4c(C(N)=O)c(=O)n(C)c5ccc(C6CCC6)cc45)CC3)nc2c1 test_result=574
mol_smiles=Cn1c(=O)c(C(N)=O)c(N2CCC(C)(c3nc4ccccc4o3)CC2)c2cccc(Cl)c21 test_result=34
mol_smiles=Cn1c(=O)c(C#N)c(N2CCC(c3ccc(OCc4ccccc4)cc3)CC2)c2ccccc21 test_result=3
mol_smiles=Cn1c(=O)c(C#N)c(N2CCC(C)(c3cc4ccccc4s3)CC2)c2ccccc21 test_result=2.9
mol_smiles=Cc1ccc2oc(C3(C)CCN(c4c(C#N)c(=O)n(C)c5cc(C(F)(F)F)ccc45)CC3)nc2c1 test_result=10
mol_smiles=CNC(=O)c1c(N2CCC(C)(c3nc4ccccc4o3)CC2)c2ccccc2n(C)c1=O test_result=13
mol_smiles=Cn1c(=O)c(C#N)c(N2CCC(c3ccc(Br)cc3)CC2)c2ccccc21 test_result=47
mol_smiles=Cc1ccc2oc(C3(C)CCN(c4c(C#N)c(=O)n(C)c5cc(Cl)ccc45)CC3)nc2c1 test_result=2.4
mol_smiles=Cc1ccc2oc(C3(C)CCN(c4c(C#N)c(=O)n(C)c5ccc(C6CC6)cc45)CC3)nc2c1 test_result=119

---

In this section, each of the compounds is paired with its reported IC50.
biological target: DGKα (Homo sapiens (Human), UniProt P23743); assay: Human DGKα kinase activity inhibition assay (ADP-Glo); details: recombinant full-length human DGKα, 55 μM ATP, 7 μM 1,2-dioleoyl-sn-glycerol, read-out: IC50 values of examples in in vitro human DGKa kinase activity inhibition assays
Metric Name: IC50

mol_smiles=Cc1ccc2c(c1)c(N1CCC(c3nc4ccc(Cl)cc4o3)CC1)c(C#N)c(=O)n2C target_system="DGKα (Homo sapiens (Human), UniProt P23743)" metric_name=IC50 test_result="1.5 nM"
mol_smiles=Cn1c(=O)c(C#N)c(N2CCC(c3nc4ccc(Cl)cc4o3)CC2)c2ccc(Br)cc21 target_system="DGKα (Homo sapiens (Human), UniProt P23743)" metric_name=IC50 test_result="6 nM"
mol_smiles=Cn1c(=O)c(C#N)c(N2CCC(c3nc4cc(Cl)ccc4s3)CC2)c2ccccc21 target_system="DGKα (Homo sapiens (Human), UniProt P23743)" metric_name=IC50 test_result="3.7 nM"
mol_smiles=Cc1ccc2oc(C3CCN(c4c(C#N)c(=O)n(C)c5ccc(OCC6CC6)cc45)CC3)nc2c1 target_system="DGKα (Homo sapiens (Human), UniProt P23743)" metric_name=IC50 test_result="15 nM"
mol_smiles=Cn1c(=O)c(C#N)c(N2CCC(c3nc4cc(F)c(F)cc4o3)CC2)c2ccccc21 target_system="DGKα (Homo sapiens (Human), UniProt P23743)" metric_name=IC50 test_result="6 nM"
mol_smiles=Cc1ccc2oc(C3CCN(c4c(C(N)=O)c(=O)n(C)c5cc(F)c(C#N)cc45)CC3)nc2c1 target_system="DGKα (Homo sapiens (Human), UniProt P23743)" metric_name=IC50 test_result="3.3 nM"
